# Tested on: IL-6
# assay text: IL-6 AlphaLISA in LPS-primed THP1 macrophages
# particulars: Homo sapiens, THP-1, read-out: IL-6 Activity (μM), THP1 macrophages, PMA, LPS priming, nigericin 6.7 uM
readout type: IC50

Look up IC50: Cc1cccc(-c2ccc(N(C)[C@@H]3CCCN(C)C3)nn2)c1O [compound 18]
5 to 10 µM

Look up IC50: Cc1cc(N(C)[C@@H]2CCCN(C)C2)nnc1-c1ccc(F)cc1O [compound 26]
> 10 µM

Look up IC50: Cc1cc(-c2ccccc2O)nnc1N[C@@H]1CCCN(CCF)C1 [compound 85]
> 10 µM

Look up IC50: Cc1cc(-c2cc(C)c(N[C@@H]3CCCN(C)C3)nn2)c(O)cc1F [compound 79]
< 1 µM

Look up IC50: CCc1ccc(-c2ccc(N[C@@H]3CCCN(C)C3)nn2)c(O)c1 [compound 14]
> 10 µM

Look up IC50: Cc1cc(N[C@@H]2CCCN(CCF)C2)nnc1-c1ccccc1O [compound 39]
> 10 µM

Look up IC50: Cc1cc(N[C@@H]2CCCN(C)C2)nnc1-c1ccc(C#N)cc1O [compound 51]
5 to 10 µM

Look up IC50: Cc1cc(-c2ccc(N[C@@H]3CCCN(C)C3)nn2)c(O)cc1F [compound 9]
> 10 µM

Give one value of IC50 per listed compound.
1. CN1CC[C@@H](Nc2ccc(-c3ccc(F)cc3O)nn2)C1 [compound 30]
2. CCN1CCC[C@@H](Nc2cc(C)c(-c3ccc(F)cc3O)nn2)C1 [compound 58]
3. Cc1cc(-c2nnc(N[C@@H]3CCCN(C)C3)cc2C)c(O)cc1F [compound 65]
4. Cc1cc(N[C@H]2CN(C)CC[C@H]2F)nnc1-c1ccc(F)cc1O [compound 49]

1: > 10 µM; 2: 5 to 10 µM; 3: > 10 µM; 4: > 10 µM

Give one value of IC50 per listed compound.
1. CN1CC[C@@H](Nc2ccc(-c3ccccc3O)nn2)C1 [compound 31]
2. Cc1cc(N[C@@H]2CCCN(CCF)C2)nnc1-c1ccc(F)cc1O [compound 44]
3. Cc1ccc(O)c(-c2ccc(N(C)[C@@H]3CCCN(C)C3)nn2)c1 [compound 19]
4. Cc1cc(N[C@@H]2CCCN(C)C2)nnc1-c1ccc(F)cc1O [compound 1]
5. Cc1cc(N[C@H]2CN(C)CC[C@@H]2F)nnc1-c1ccccc1O [compound 43]
6. Cc1cc(F)cc(O)c1-c1ccc(N[C@@H]2CCCN(C)C2)nn1 [compound 6]
7. Cc1c(F)ccc(-c2ccc(N(C)[C@@H]3CCCN(C)C3)nn2)c1O [compound 24]
8. CCc1cc(C)c(-c2ccc(N[C@@H]3CCCN(C)C3)nn2)c(O)c1 [compound 12]

1. > 10 µM
2. > 10 µM
3. 5 to 10 µM
4. < 1 µM
5. > 10 µM
6. 5 to 10 µM
7. 1 to 5 µM
8. > 10 µM
